- Test system: XBP1(u)-luciferase splicing reporter in HepG2 hepatoma cells
- ASSAY PROTOCOL: HepG2 XBP1 reporter assay (XBP1(u)-Luc)
- Format: cell-based
- RECORDED CONDITIONS: Homo sapiens, 6 h, six hours after addition of compound
pIC50: −log10 of the molar value.
OBSERVATION TYPE: pIC50

Name the reported pIC50 value associated with the molecule Cc1cc(N2CCCOC[C@@H]2c2cc(N)c(C(F)(F)F)cc2Cl)nc(N)n1 [D-10]
> 6.22

Follow-up entry: Cc1cc(N2CCCOCC2c2cc(O)c(NC(=O)CC(C)(C)O)cc2Cl)nc(N)n1 [D-100]
5.70 to 6.22

Follow-up entry: Cc1cc(N2CCCOCC2c2ccc(S(N)(=O)=O)cc2)nc(N)n1 [D-102]
≤ 5.30

Follow-up entry: Cc1cc(N2CCCOC[C@H]2c2cc3c(cc2Cl)NC[C@@](C)(C(=O)OC(C)C)O3)nc(N)n1 [D-128]
5.70 to 6.22

Follow-up entry: CCOC(=O)c1cc(Cl)c(C2COCCCN2c2cc(C)nc(N)n2)cc1C#N [D-134]
≤ 5.30

---

Field: pIC50. Provide a value for each of the compounds that follow.
- System: XBP1(u)-luciferase splicing reporter in HepG2 hepatoma cells
- ASSAY PROTOCOL: HepG2 XBP1 reporter assay (XBP1(u)-Luc)
- Assay type: cell-based
- RECORDED CONDITIONS: Homo sapiens, 6 h, six hours after addition of compound
pIC50: −log10 of the molar value.

Name the reported pIC50 value associated with the compound Cc1cc(N2CCCOC[C@H]2c2cc(O)c(C(N)=O)cc2Cl)nc(N)n1
≤ 5.30

Follow-up entry: Cc1cc(N2CCCOC[C@@H]2c2cc3c(cc2Cl)CCN3C)nc(N)n1
> 6.22

Follow-up entry: Cc1cc(N2CCCOCC2c2cc(O)c(OC(F)F)cc2Cl)nc(N)n1 (centres unmarked)
> 6.22

Follow-up entry: Cc1cc(N2CCCOC[C@@H]2c2cc(N)c(OC(F)(F)F)cc2Cl)nc(N)n1
> 6.22

Follow-up entry: Cc1cc(N2CCCOC[C@@H]2c2ccc(NC(=O)C(F)F)cc2Cl)nc(N)n1
5.70 to 6.22

---

Field: IC50. Provide a value for each of the compounds that follow.
- Tested on: XBP1(u)-luciferase splicing reporter in HepG2 hepatoma cells
- ASSAY PROTOCOL: HepG2 XBP1 reporter assay (XBP1(u)-Luc)
- Type: cell-based
- RECORDED CONDITIONS: Homo sapiens, 6 hours after compound addition, Table 4

Name the reported IC50 value associated with the compound Cc1cc(N2CCCOC[C@H]2c2cc3c(cc2Cl)OCC(=O)N3)nc(N)n1
< 600 nM

Follow-up entry: Cc1cc(N2CCCOCC2c2cc(O)c(Cl)cc2Cl)nc(N)n1 (stereo not drawn)
600 to 2000 nM

Follow-up entry: Cc1cc(N2CCCOCC2c2cc3c(cc2Cl)OCC(=O)N3)nc(N)n1 (stereo not drawn)
< 600 nM

Follow-up entry: CC[C@@H]1COC[C@@H](c2ccc(CS(C)(=O)=O)cc2Cl)N(c2cc(C)nc(N)n2)C1
≥ 5000 nM

Follow-up entry: Cc1cc(N2CCCOCC2c2cc(CS(C)(=O)=O)ccc2Cl)nc(N)n1 (stereo not drawn) [C-12]
600 to 2000 nM

Follow-up entry: Cc1cc(N2CCCOCC2c2ccc(OCS(C)(=O)=O)cc2Cl)nc(N)n1 (stereo not drawn)
< 600 nM

Follow-up entry: Cc1cc(N2CCCOC[C@H]2c2cc3c(cc2Cl)NC(=O)CO3)nc(N)n1
600 to 2000 nM

Follow-up entry: CSCOc1ccc(C2COCCCN2c2cc(C)nc(N)n2)c(Cl)c1 (stereo not drawn)
< 600 nM

Follow-up entry: Cc1cc(N2CCCOCC2c2cc3c(cc2Cl)NC(=O)CO3)nc(N)n1 (stereo not drawn)
< 600 nM

---

- Tested on: XBP1(u)-luciferase splicing reporter in HepG2 hepatoma cells
- ASSAY PROTOCOL: HepG2 XBP1 reporter assay (XBP1(u)-Luc)
- Format: cell-based
- RECORDED CONDITIONS: Homo sapiens, 6 hours after compound addition, Table 4
pIC50: −log10 of the molar value.
OBSERVATION TYPE: pIC50

Request: pIC50, test system XBP1(u)-luciferase splicing reporter in HepG2 hepatoma cells, entry Nc1nccc(N2CCCOC[C@H]2c2cc3c(cc2Cl)OCCCO3)n1 [C-71]
≤ 5.30

Follow-up entry: CCOc1cc(Cl)c(C2COCCCN2c2cc(C)nc(N)n2)cc1OC (centres unmarked) [C-23]
> 6.22

Follow-up entry: Cc1cc(N2CCCOCC2c2cc(C)c(N3CCCC3)cc2Cl)nc(N)n1 (centres unmarked) [C-112]
5.70 to 6.22

Follow-up entry: Cc1cc(N2CCCOCC2c2ccc(OC[C@H](O)CO)cc2Cl)nc(N)n1 (some centres unmarked) [C-61]
> 6.22

Follow-up entry: COc1cc(Cl)c([C@@H]2COCCCN2c2cc(C)nc(N)n2)cc1O [C-94]
> 6.22

Follow-up entry: Cc1cc(N2CCCOCC2c2cc(OC(F)(F)F)c(N)cc2Cl)nc(N)n1 (centres unmarked) [C-130]
5.70 to 6.22

Follow-up entry: Cc1cc(N2CCCOC[C@@H]2c2cc3c(cc2Cl)CCN3)nc(N)n1 [C-134]
> 6.22

Follow-up entry: Cc1cc(N2CCCOC[C@@H]2c2cc3c(cc2Cl)NCC3)nc(N)n1 [C-59]
> 6.22

Follow-up entry: COc1cc(C2COCCCN2c2ccnc(N)n2)c(Cl)cc1OC1CCCC1 (centres unmarked) [C-102]
5.70 to 6.22

Follow-up entry: Cc1cc(N2CCCOC[C@@H]2c2ccc(OC[C@@H](O)CO)cc2Cl)nc(N)n1 [C-64]
5.30 to 5.70

Follow-up entry: CCNc1cc(Cl)c([C@H]2COCCCN2c2cc(C)nc(N)n2)cc1C [C-146]
> 6.22

Follow-up entry: Cc1cc(N2CCCOCC2c2cc(C(F)(F)F)c(N)cc2Cl)nc(N)n1 (centres unmarked) [C-31]
> 6.22

Follow-up entry: Cc1cc(N2CCCOCC2c2cc(C)c(Cl)cc2Cl)nc(N)n1 (centres unmarked) [C-10]
5.30 to 5.70

Follow-up entry: Cc1cc(N2CCCOCC2c2cc3c(cc2Cl)NCC3)nc(N)n1 (centres unmarked) [C-1]
> 6.22

Follow-up entry: Cc1cc(N2CCCOCC2c2cc(C)c(O)cc2Cl)nc(N)n1 (centres unmarked) [C-128]
5.70 to 6.22

Follow-up entry: Cc1cc(N2CCCOC[C@@H]2c2cc(Cl)c(O)cc2Cl)nc(N)n1 [C-87]
5.70 to 6.22

Follow-up entry: Cc1cc(N2CC3(CC3)COC[C@@H]2c2ccc(CS(C)(=O)=O)cc2Cl)nc(N)n1 [C-136]
≤ 5.30

Follow-up entry: Cc1cc(N2CCCOCC2c2ccc(OC[C@@H](O)CO)cc2Cl)nc(N)n1 (some centres unmarked) [C-42]
5.70 to 6.22

Follow-up entry: Cc1cc(N2CCCOCC2c2ccc(CS(C)(=O)=O)nc2Cl)nc(N)n1 (centres unmarked) [C-82]
5.70 to 6.22

Follow-up entry: CCOc1cc(Cl)c([C@@H]2COCCCN2c2cc(C)nc(N)n2)cc1OCC [C-104]
≤ 5.30

---

- System: XBP1(u)-luciferase splicing reporter in HepG2 hepatoma cells
- ASSAY PROTOCOL: HepG2 XBP1 reporter assay (XBP1(u)-Luc)
- Type: cell-based
- RECORDED CONDITIONS: Homo sapiens, 6 h, six hours after addition of compound
- Excerpt: HepG2 XBP1 Reporter Assay HepG2 hepatoma cells were transduced with a retrovirus encoding the cDNA for unspliced (u) XBP1, which contains a non-processed intron, fused to the cDNA for firefly luciferase. Upon induction of ER stress, the non-processed intron of XBP1(u) is spliced out by active IRE1alpha endonuclease. The resulting spliced (s) XBP1 is now in frame with luciferase which causes the production of active luciferase protein, resulting in bioluminescence […]
Field: IC50. Provide a value for each of the molecules that follow.

Request: IC50, test system XBP1(u)-luciferase splicing reporter in HepG2 hepatoma cells, entry Cc1cc(N2CCCOCC2c2ccc(CS(C)(=O)=O)nc2OC(F)F)nc(N)n1 (stereo not drawn)
< 600 nM

Follow-up entry: Cc1cc(N2CCCOC[C@H]2c2ccc(C3CCNCC3)cc2Cl)nc(N)n1
< 600 nM

Follow-up entry: COC(=O)c1cc(C2COCCCN2c2cc(C)nc(N)n2)c(Cl)cc1C#N (stereo not drawn)
600 to 2000 nM

Follow-up entry: Cc1cc(N2CCCOCC2c2ccc3[nH]ncc3c2)nc(N)n1 (stereo not drawn)
2000 to 5000 nM

Follow-up entry: Cc1cc(N2CCCOC[C@@H]2c2ccc(N3C[C@@H](C)O[C@@H](C)C3)cc2Cl)nc(N)n1
600 to 2000 nM

Follow-up entry: CCOC(=O)Cc1cc(C2COCCCN2c2cc(C)nc(C)n2)c(Cl)cc1C#N (stereo not drawn)
2000 to 5000 nM

Follow-up entry: Cc1cc(N2CCCOC[C@@H]2c2ccc(NC(=O)CCO)cc2Cl)nc(N)n1
600 to 2000 nM

Follow-up entry: Cc1cc(N2CCCOCC2c2cc(O)c(C(=O)O)cc2Cl)nc(N)n1 (stereo not drawn)
< 600 nM

Follow-up entry: CNC(=O)c1cc(Cl)c([C@@H]2COCCCN2c2cc(C)nc(N)n2)cc1O
≥ 5000 nM
